Data origin: the supplement of paper PMC6757056

B1: library; a variant is named by its letters at N, in order (parent)
chain: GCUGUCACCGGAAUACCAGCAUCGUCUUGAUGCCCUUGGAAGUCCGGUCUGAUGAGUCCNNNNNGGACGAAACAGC

Variants of: B1
TEST: normalized RNA/DNA level without ligand (relative to sTRSVctl = 100) (log10 (% of sTRSVctl)); higher = less ribozyme self-cleavage, higher mRNA level
TEST CONDITIONS: HEK293T, reporter: mCherry (pCS4076), ligand present: no
ASSAY ENDPOINT: normalized RNA/DNA level without ligand (log10)
Enter the number alone.

GCUGUCACCGGAAUACCAGCAUCGUCUUGAUGCCCUUGGAAGUCCGGUCUGAUGAGUCCAACUGGGACGAAACAGC	1.8

Prompt line: Given the entry `GCUGUCACCGGAAUACCAGCAUCGUCUUGAUGCCCUUGGAAGUCCGGUCUGAUGAGUCCGACCUGGACGAAACAGC` , report its measured normalized RNA/DNA level without ligand (log10).
Response line: 1.95

Prompt line: Can you share its normalized RNA/DNA level without ligand (log10)? I mean this variant: `GCUGUCACCGGAAUACCAGCAUCGUCUUGAUGCCCUUGGAAGUCCGGUCUGAUGAGUCCAGUCAGGACGAAACAGC`
Response line: 1.73
